Cited source: the RNAGym collection of RNA variant scans (doi:10.1126/science.aae0568)

Consider the following variants; for each one, report its yeast fitness.
B1: tRNA (parent)
chain: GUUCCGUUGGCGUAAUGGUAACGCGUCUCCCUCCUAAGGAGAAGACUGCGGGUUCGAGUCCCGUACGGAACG

Variants of: B1
method.summary: yeast fitness relative to wild type (ratio to wild type); higher = fitter; tRNA-Arg(CCU), competitive growth, 37 C, YPD
This sample holds only a part of the variants without activity.

Would you please look over these solved cases?
1) GUUCCGUUGGCGUAAUGGUAACGCGUCUCGCUCCUAAGGAGUAGGCUGCGGGUUCGAGUCCCGUACGGUACG [C30G A42U A45G A69U]	≤ 0.5
2) GUUCCGUUGGCGUAAUGGUAACGCCUCUCCCUCCCAAGGAGAAGACUGCGGGUUCGAGACCCGUACUGCACG [G25C U35C U59A G67U A69C]	≤ 0.5
3) GUUACGUUGGCGUGAUGGUAACGCGUCUCCCUCCUAAGGAGAAGACUGCGGGUUCGAGUCCCGAACGGACCG [C4A A14G U64A A70C]	≤ 0.5
4) GUUCCGUUGGCGAAAUGGUAAGGCGUGUCCGUCCUAAGGAGAAGACUGCGGGUUCGAGUCGCGUACGGUACG [U13A C22G C27G C31G C61G A69U]	≤ 0.5

# map each variant to its yeast fitness
1. GUUCCAUUGGCGUAAUGGUAACGUGUCUCCCUCCUAAGGAGAAGACUGUGGGUUCGAGUCGCGUAUGGUACG [G6A C24U C49U C61G C66U A69U]
2. GUCCCGUUGGCGUAAUGGUAACGCGUCUCCCUCCUAAAGAGAAGCCUGCGGGUUCGAGUCCCGUACGGAACG [U3C G38A A45C]
3. GUUCCGUUGGCGUAAUGGUAACGCGUCUCCCCCCUACGCAGAAGACUGCGGGUUCGAGUCCCGUACGGAACG [U32C A37C G39C]
4. GUUCUGUUGGCGUAAUGGUAACGUGUCUCCCUCCUAAGGAGAAGACUGCGGUUUAGAGUCCCGUACGGAACG [C5U C24U G52U C55A]
5. GUUCCGUUGGCGAAAUGGUAACGCGGAUCCCUCCUAAGCAGGAGACUGCGCGUUCGAGUCCCGUAUGGUACG [U13A U26G C27A G39C A42G G51C C66U A69U]

Response:
1. ≤ 0.5
2. ≤ 0.5
3. ≤ 0.5
4. ≤ 0.5
5. ≤ 0.5
